Experiment: amyloid nucleation score (Sup35N fusion, yeast selection) (log enrichment); library NNK2; higher = more nucleation; inactive = no reads after selection;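 note: zero at mode of non-aggregating sequences after 7 days selection at 30°C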
Listed here: items and their measured amyloid nucleation score.

[
  {
    "substance": "STCSTGHRSLRTKKRNSILS",
    "amyloid nucleation score": 4.34
  },
  {
    "substance": "ARNIGDCRDVSCDWCFSYAF",
    "amyloid nucleation score": 5.13
  },
  {
    "substance": "RGVVGLDSIRWPSFGAVMKF",
    "amyloid nucleation score": -0.757
  },
  {
    "substance": "ALGTEFSVPKFTDGVNMAAR",
    "amyloid nucleation score": -0.451
  },
  {
    "substance": "IWGGFYS",
    "amyloid nucleation score": -1.29
  },
  {
    "substance": "RVFMEH",
    "amyloid nucleation score": -0.047
  },
  {
    "substance": "YVNMAVNLTTDGQMTWNSRT",
    "amyloid nucleation score": 6.65
  },
  {
    "substance": "HCAEHQPASGVLVTGYWDLG",
    "amyloid nucleation score": 0.444
  },
  {
    "substance": "RDLLIGDDI",
    "amyloid nucleation score": -0.983
  },
  {
    "substance": "SGNHSLVLYDWDYVWYVTQY",
    "amyloid nucleation score": -1.1
  },
  {
    "substance": "SLEKMWCRLFKGSQT",
    "amyloid nucleation score": 1.11
  },
  {
    "substance": "GVKRYDVHM",
    "amyloid nucleation score": -0.244
  },
  {
    "substance": "MTGNVYKMIILIYNFFRRS",
    "amyloid nucleation score": 2.7
  },
  {
    "substance": "FLGTHVHANCSGYMVMIVYR",
    "amyloid nucleation score": 7.77
  },
  {
    "substance": "GEQMWGYCRLYRGTGRGALG",
    "amyloid nucleation score": 1.85
  },
  {
    "substance": "LLLLWYRNQPHITDAFRQEL",
    "amyloid nucleation score": 0.733
  },
  {
    "substance": "CGYLRDTWWFFCVTLRNRGV",
    "amyloid nucleation score": 1.12
  },
  {
    "substance": "RIRYGLKVCSMVDGMLGRDW",
    "amyloid nucleation score": 0.807
  },
  {
    "substance": "TSYIVDTSSLFITRASTG",
    "amyloid nucleation score": 0.336
  },
  {
    "substance": "KFWLCDEGYWWNVASGLSSV",
    "amyloid nucleation score": 0.845
  },
  {
    "substance": "VRDLTCSNNITILFMHW",
    "amyloid nucleation score": 6.13
  },
  {
    "substance": "RHKFAMMACVTYNGDVGVMT",
    "amyloid nucleation score": 1.14
  },
  {
    "substance": "CISTYN",
    "amyloid nucleation score": -0.822
  },
  {
    "substance": "DAVMVWVGDV",
    "amyloid nucleation score": 0.179
  },
  {
    "substance": "VLDTMYGTDIQRRTMGKANT",
    "amyloid nucleation score": 0.391
  },
  {
    "substance": "SSDLAGQRLSLCWVLCTG",
    "amyloid nucleation score": 0.474
  },
  {
    "substance": "TVPGNEEV",
    "amyloid nucleation score": 0.028
  },
  {
    "substance": "GLNVLCSLAIKAKLDGRWRH",
    "amyloid nucleation score": 9.37
  },
  {
    "substance": "NGFMVSFV",
    "amyloid nucleation score": -1.39
  },
  {
    "substance": "KNSWAAVPRSEEYCREVIGH",
    "amyloid nucleation score": 0.482
  },
  {
    "substance": "RNVACFSAVT",
    "amyloid nucleation score": -0.283
  },
  {
    "substance": "PYALWGIRESHLFQKCWSGM",
    "amyloid nucleation score": 3.33
  },
  {
    "substance": "DSCCMSYSRQNCTY",
    "amyloid nucleation score": 0.218
  },
  {
    "substance": "FRMSVKR",
    "amyloid nucleation score": 0.309
  },
  {
    "substance": "FYSLILMMEDGSEYVKVEFR",
    "amyloid nucleation score": -1.38
  },
  {
    "substance": "TSNLFHLYGACRRYMGRCSA",
    "amyloid nucleation score": 0.434
  },
  {
    "substance": "TCYTTSVRNSTS",
    "amyloid nucleation score": 0.082
  }
]
